The origin of these recorded values is paper PMC8153946.

Tested on: 13 recombinant human CYP enzymes
Test: Oxidation rates by 13 recombinant human CYP enzymes at fixed substrate concentration (Figure 2)
Format: biochemical
Conditions: 25 nM CYP, fixed substrate concentration
Recorded endpoint: fluorescence change and rate of the oxidation

- CC(=O)Oc1cccc(-c2cc3cc(Cl)ccc3oc2=O)c1: almost equally low
- Cc1ccc2oc(=O)c(-c3ccc(F)cc3)cc2c1: almost equally low
- CCCCCOc1ccc2nc3ccc(=O)cc-3oc2c1 [Compound 26, 7-pentoxyresorufin, reference compound]: lowest
- O=c1oc2ccccc2cc1-c1cccc(O)c1 [Compound 23, 3-(3-hydroxyphenyl)coumarin]: lowest

###

Biological target: CYP1A2 (Homo sapiens, UniProt P05177)
Construct: purchased BD Biosciences Discovery Labware (Woburn, MA, USA); host or cells: baculovirus-insect cells
Sequence (P05177 whole entry): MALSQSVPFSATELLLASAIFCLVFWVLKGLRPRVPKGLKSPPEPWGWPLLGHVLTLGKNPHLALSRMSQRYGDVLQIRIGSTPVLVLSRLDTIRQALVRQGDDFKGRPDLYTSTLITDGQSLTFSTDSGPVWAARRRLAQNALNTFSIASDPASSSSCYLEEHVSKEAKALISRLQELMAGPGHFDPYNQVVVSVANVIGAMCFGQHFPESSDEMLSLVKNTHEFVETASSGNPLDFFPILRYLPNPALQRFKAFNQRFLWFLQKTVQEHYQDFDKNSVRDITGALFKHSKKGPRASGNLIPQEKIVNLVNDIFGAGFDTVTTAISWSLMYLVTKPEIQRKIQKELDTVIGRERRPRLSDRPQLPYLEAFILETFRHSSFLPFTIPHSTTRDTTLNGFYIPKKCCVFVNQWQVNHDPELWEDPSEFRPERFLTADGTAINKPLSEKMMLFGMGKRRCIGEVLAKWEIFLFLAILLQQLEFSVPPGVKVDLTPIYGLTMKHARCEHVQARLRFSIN
Test: Michaelis–Menten kinetics of oxidation to fluorescent 7-hydroxy metabolite by recombinant CYP1A2
Format: biochemical
Details: human, recombinant CYP1A2 (baculovirus-insect cell-expressed); recombinant CYP1A2, 100 mM Tris-HCl pH 7.4, 37 °C; 95% confidence interval in brackets
Recorded endpoint: Km

- CCOc1ccc2ccc(=O)oc2c1 [Compound 24, 7-ethoxycoumarin, reference compound]: 7.7 µM
